# protocol summary: qHTS for Inhibitors of human tyrosyl-DNA phosphodiesterase 1 (TDP1): qHTS in cells in presence of CPT; note: % is set by controls: 0 for no effect and ±100 for the full control effect; nearly all actives have a fitted effect of over 55% in size
# test settings: chicken DT40 Tdp1-/-;hTDP1 cells + 20 nM CPT, ATP luminescence, 48 h; series mostly up to 46.2 µM
The campaign covered roughly 420,000 compounds. About 50,000 (12%) were called active. About 26% were inconclusive and are not listed. This is one part of a sample in which actives are shown more often than they occur.
Quick list: activity change, negative = growth inhibition per entry.
measurement name: activity change, negative = growth inhibition

1) C/C(Nc1ccc2oc(=O)ccc2c1)=C1/C(=O)CC2[C@@H]1C2(C)C (stereo partly drawn) = 6.03% [at 9.04 µM] (inactive)
2) COc1ccc(/C=C2\NC(=O)[C@@H]3Cc4ccccc4CN3C2=O)cc1 = -14.1% [at 9.04 µM] (inactive)
3) O=C(C(=O)N1CCOc2ccc(CN3CCN(Cc4ccccn4)CC3)cc2C1)c1ccccc1 = 6.37% [at 9.04 µM] (inactive)
4) O=C(CN1Cc2ccccc2OC(c2ccccc2)C1)N1CCCCC1c1cccnc1 (stereo not drawn) = -0.761% [at 9.04 µM] (inactive)
5) COc1ccccc1C1CN(Cc2ccccc2O)Cc2ccccc2O1 (stereo not drawn) = -2.83% [at 9.04 µM] (inactive)
6) Cc1csc(-c2coc3cc(O[C@@H]4O[C@H](CO)[C@@H](O)[C@@H](O)[C@H]4O)ccc3c2=O)n1 = 8.48% [at 9.04 µM] (inactive)
7) Cc1ccc(-c2ccnc(-n3ncc(C(=O)N(C)Cc4cccc5ncccc45)c3C3CC3)n2)o1 = 10% [at 9.04 µM] (inactive)
8) O=C1NC(CC(=O)N2CCC(n3c(C4CCC4)nc4cccnc43)CC2)c2ccccc21 (stereo not drawn) = -6.43% [at 9.04 µM] (inactive)
9) COc1cc(=O)n2c(c1C(=O)NC(C)c1ccco1)CCN(Cc1cc(C)cc(C)c1)CC2 (stereo not drawn) = -2.45% [at 9.04 µM] (inactive)
10) Cc1cc(C(=O)NCC2Cc3cccc(-c4cncnc4)c3O2)c(C)o1 (stereo not drawn) = 6.48% [at 9.04 µM] (inactive)
11) CC(=O)Nc1cc(C(=O)N2CCc3c(Cl)cccc3C2)cc2ncn(CCc3ccccn3)c12 = -10.1% [at 9.04 µM] (inactive)
12) CCCCC/C=C\CC1OC1CCCCCCCC(=O)O (stereo not drawn) = 0.0245% [at 0.628 µM] (inactive)
13) CCCCC/C=C\C/C=C\CCCCCCCCCC(=O)O = -5.48% [at 4.12 µM] (inactive)
14) COCC1CCCN(Cc2ccc3c(c2)CN(C(=O)c2ccnn2C)CCO3)C1 (stereo not drawn) = -3.58% [at 9.04 µM] (inactive)
15) COc1ccccc1C(=O)N[C@@H]1c2ccccc2C2(CCN(C(=O)c3csnn3)CC2)[C@H]1OC = -8.07% [at 9.04 µM] (inactive)
16) Cc1cc(-c2ccnc(-n3ncc(C(=O)NC(C)(C)CO)c3C3CC3)n2)c(C)s1 = 3.64% [at 9.04 µM] (inactive)
17) CN(C)C(=O)[C@@H]1C[C@@H](Sc2nc3ccccc3[nH]2)CN1Cc1ccc(Cl)cc1 = 0.0416% [at 9.04 µM] (inactive)
18) O=c1c(O)c(Br)ccc2c(Br)c(O)c(O)c(O)c12 = -8.83% [at 9.04 µM] (inactive)
